- Assay remarks: Antiproliferative activity against human HeLa cells after 24 hrs by MTS assay
- Type: functional, cell-based
Measurement type: EC50
Give your result as the value with the unit written after it.

Example compounds with recorded EC50:
Smiles record	Observed value
CCNC(=S)NNC(=O)CSc1nc2sc3c(c2c(=O)n1CC)CCCC3	7.97 µM
CCNc1nnc(CSc2nc3sc4c(c3c(=O)n2CC)CCCC4)s1	9.28 µM

input: // EC50 lookup, key: CCNC(=S)NNC(=O)CSc1nc2sc(C)c(C)c2c(=O)n1CC
output: 0.43 µM

---

- Assay remarks: Cytotoxicity against human LEP-3 cells after 24 hrs by MTS assay
- Format: toxicity, cell-based
Measurement type: IC50 at 24 h

Smiles record	Observed value
CCNc1nnc(CSc2nc3sc(C)c(C)c3c(=O)n2CC)s1	191000 nM
CCNc1nnc(CSc2nc3sc(C(=O)OCC)c(C)c3c(=O)n2CC)s1	89 nM
CCNC(=S)NNC(=O)CSc1nc2sc(C(=O)OCC)c(C)c2c(=O)n1CC	800 nM

input: // IC50 at 24 h lookup, key: CCNC(=S)NNC(=O)CSc1nc2sc(C)c(C)c2c(=O)n1CC
output: 10 nM

input: // IC50 at 24 h lookup, key: CCNc1nnc(CSc2nc3sc4c(c3c(=O)n2CC)CCCC4)s1
output: 9770 nM
